Test: RP, Waters ACQUITY Premier BEH C18, 100 × 2.1 mm, 1.7 µm, 40 °C, 0.3 to 0.4 mL/min, estimated dead time 0.73 min; A: water + 0.1% formic acid; B: acetonitrile + 0.1% formic acid; gradient (min/%B) 0/0.5 0.1/0.5 10/80 10.1/99.5 12/0.5 12.1/0.5 14.5/0.5
Conditions: stereoisomer not certain
EXPERIMENTAL ENDPOINT: LC retention time (min)

Worked cases, LC retention time given:
CNCC(O)c1ccc(O)cc1 [D-SYNEPHRINE] : 0.927
O=C(O)CCCCC1CCSS1 [(R)-LIPOIC ACID] : 6.93
COc1ccc(CC(=O)O)cc1OC : 5.34

[a] O=C(O)CCCc1c[nH]c2ccccc12
[b] CCCCCCCCC=CCCCCCCCC(=O)OCC(O)CO (stereo unspecified)
[c] O=C(O)CC(O)C(=O)O (stereo unspecified) [MALATE]
Give the ascending ranking of the items by reported LC retention time. Labels, ranked as asked. c, a, b

----------
Test: RP, Waters ACQUITY Premier BEH C18, 100 × 2.1 mm, 1.7 µm, 40 °C, 0.3 to 0.4 mL/min, estimated dead time 0.73 min; A: water + 0.1% formic acid; B: acetonitrile + 0.1% formic acid; gradient (min/%B) 0/0.5 0.1/0.5 10/80 10.1/99.5 12/0.5 12.1/0.5 14.5/0.5
Conditions: stereoisomer not certain
EXPERIMENTAL ENDPOINT: LC retention time (min)

O=c1cc(C2Oc3cc(O)cc(O)c3CC2O)cc2c(C3Oc4cc(O)cc(O)c4CC3O)cc(O)c(O)c2c1O (stereo not drawn) [THEAFLAVIN] : 5.18
O=C(O)CC(CC(=O)O)C(=O)O [1,2,3-PROPANETRICARBOXYLIC ACID] : 2.39

[A] O=C(O)c1cc(O)cc(O)c1 [3,5-DIHYDROXYBENZOIC ACID]
[B] CC(CCC(=O)NCC(=O)O)C1CCC2C3CCC4CC(O)CCC4(C)C3CCC12C (stereo not drawn) [LITHOCHOLIC ACID GLYCINE CONJUGATE]
[C] Cn1c(=O)c2c(ncn2C)n(C)c1=O [CAFFEINE]
Rank the items in ascending order with respect to LC retention time. Provide your answer as the labels ordered per the instruction. A, C, B

----------
Assay: RP, Waters ACQUITY Premier BEH C18, 100 × 2.1 mm, 1.7 µm, 40 °C, 0.3 to 0.4 mL/min, estimated dead time 0.73 min; A: water + 0.1% formic acid; B: acetonitrile + 0.1% formic acid; gradient (min/%B) 0/0.5 0.1/0.5 10/80 10.1/99.5 12/0.5 12.1/0.5 14.5/0.5
Conditions: stereoisomer not certain
EXPERIMENTAL ENDPOINT: LC retention time (min)

O=C(O)c1cccc(O)c1 [3-HYDROXYBENZOATE] : 4.72

[I] CC(=O)Oc1cccc(O)c1 [RESORCINOL MONOACETATE]
[II] Cc1cc2nc3c(=O)[nH]c(=O)nc-3n(CC(O)C(O)C(O)COP(=O)(O)O)c2cc1C (stereo not given) [FLAVIN MONONUCLEOTIDE]
[III] Nc1ncnc2c1ncn2C1CC(O)C(COP(=O)(O)O)O1 (stereo not given) [DEOXYADENOSINE MONOPHOSPHATE]
Output the entries ranked by LC retention time from maximum down to minimum. Give the labels in the order specified. I, II, III
(I: 5.71 min, II: 3.73 min, III: 2.07 min)

----------
Experiment: RP, Waters ACQUITY Premier BEH C18, 100 × 2.1 mm, 1.7 µm, 40 °C, 0.3 to 0.4 mL/min, estimated dead time 0.73 min; A: water + 0.1% formic acid; B: acetonitrile + 0.1% formic acid; gradient (min/%B) 0/0.5 0.1/0.5 10/80 10.1/99.5 12/0.5 12.1/0.5 14.5/0.5
Conditions: stereoisomer not certain
EXPERIMENTAL ENDPOINT: LC retention time (min)

COc1ccc(-c2cc(=O)c3c(O)cc(O)cc3o2)cc1O : 6.12
CC(C=CC1=C(C)CCCC1(C)C)=CC=CC(C)=CC(=O)O [RETINOATE] : 9.05

[I] O=C(O)CC1C(=O)Nc2ccccc21 (centres undefined) [3-OXINDOLE-3-ACETATE]
[II] CCCCCCCCCCCCCCCC(=O)NCCO [PALMITOYLETHANOLAMIDE]
Between these two entries, I and II , state which has the higher LC retention time. Mark your answer with the label of the selected entry. II

[A] Oc1ccc(O)cc1 [HYDROQUINONE]
[B] O=C1CCNC(=O)N1 [DIHYDROURACIL]
Between A and B , whose recorded LC retention time is greater? Please reply using the label of the selected record. A

[A] CSCCC(O)C(=O)O (centres undefined) [2-HYDROXY-4-(METHYLTHIO)BUTANOATE]
[B] O=c1cc(-c2ccc(O)c(-c3c(O)cc(O)c4c(=O)cc(-c5ccc(O)cc5)oc34)c2)oc2cc(O)cc(O)c12
Hi, I'm comparing two records. Which one has the lower LC retention time, A or B ? Write the label of whichever entry you select. A

[P] O=C(O)CNC(=O)c1ccccc1 [HIPPURATE]
[Q] CC1(C(=O)O)CCC2(C)CCC3(C)C(=CC(=O)C4C5(C)CCC(O)C(C)(C)C5CCC43C)C2C1 (centres undefined)
Param pair: P , Q . Output: the one whose LC retention time is numerically greater. I would appreciate it if you answered with the label of your choice. Q

----------
Test: RP, Waters ACQUITY Premier BEH C18, 100 × 2.1 mm, 1.7 µm, 40 °C, 0.3 to 0.4 mL/min, estimated dead time 0.73 min; A: water + 0.1% formic acid; B: acetonitrile + 0.1% formic acid; gradient (min/%B) 0/0.5 0.1/0.5 10/80 10.1/99.5 12/0.5 12.1/0.5 14.5/0.5
Conditions: stereoisomer not certain
EXPERIMENTAL ENDPOINT: LC retention time (min)

Recorded LC retention time, per entry:
COC(=O)C1=CCCN(C)C1 : 1.02
O=CC(O)C(O)C(O)C(O)CO (stereo not drawn) [ISTD_ D(+)-GLUCOSE-13C6] : 0.888
OCC1OC(Oc2ccc(O)cc2)C(O)C(O)C1O (centres undefined) : 1.12

[A] CC1(C(=O)O)CCC2(C)CCC3(C)C(=CC(=O)C4C5(C)CCC(OC6OC(C(=O)O)C(O)C(O)C6OC6OC(C(=O)O)C(O)C(O)C6O)C(C)(C)C5CCC43C)C2C1 (centres undefined)
[B] O=C(O)CCc1ccc(O)c(O)c1 [3,4-DIHYDROXYHYDROCINNAMIC ACID]
Pick one, A or B : lowest reported LC retention time. When you have decided, please share the label of that item. B

----------
Test: RP, Waters ACQUITY Premier BEH C18, 100 × 2.1 mm, 1.7 µm, 40 °C, 0.3 to 0.4 mL/min, estimated dead time 0.73 min; A: water + 0.1% formic acid; B: acetonitrile + 0.1% formic acid; gradient (min/%B) 0/0.5 0.1/0.5 10/80 10.1/99.5 12/0.5 12.1/0.5 14.5/0.5
Settings: stereoisomer not certain
EXPERIMENTAL ENDPOINT: LC retention time (min)

The following molecules have reported results that may help.
O=c1c(-c2ccc(O)cc2)coc2cc(OC3OC(CO)C(O)C(O)C3O)cc(O)c12 (stereo not given) : 4.57
Nc1ccn(C2OC(CO)C3OP(=O)(O)OC32)c(=O)n1 (stereo not given) [CYTIDINE 2',3'-CYCLIC PHOSPHATE] : 0.94
C=CC(C)(O)CCC1C(C)(O)CCC2C(C)(C)CCCC21C (stereo not given) : 8.18

[1] N[C@@H](Cc1ccc(O)c(O)c1)C(=O)O
[2] CC(=O)OCC(=O)C1CCC2C3CCC4=CC(=O)CCC4(C)C3CCC12C (stereo not given) [DEOXYCORTICOSTERONE ACETATE]
Short answer wanted: higher LC retention time, 1 or 2 ? Give the label under which the chosen entry appears. 2

----------
Experiment: RP, Waters ACQUITY Premier BEH C18, 100 × 2.1 mm, 1.7 µm, 40 °C, 0.3 to 0.4 mL/min, estimated dead time 0.73 min; A: water + 0.1% formic acid; B: acetonitrile + 0.1% formic acid; gradient (min/%B) 0/0.5 0.1/0.5 10/80 10.1/99.5 12/0.5 12.1/0.5 14.5/0.5
Conditions: stereoisomer not certain
EXPERIMENTAL ENDPOINT: LC retention time (min)

O=C(O)CCCCCCCCCO [10-HYDROXYDECANOATE] : 6.11
CC(C)(C(=O)O)C(=O)O [DIMETHYLMALONIC ACID] : 3.97
C=CCC(=NOS(=O)(=O)O)SC1OC(CO)C(O)C(O)C1O (stereo unspecified) [SINIGRIN] : 2.03
Nc1ccn(C2OC(CO)C(O)C2O)c(=O)n1 (stereo unspecified) [CYTIDINE] : 1.41

[1] CC(CCC(=O)NCCS(=O)(=O)O)C1CCC2C3CCC4CC(O)CCC4(C)C3CCC12C (stereo unspecified) [LITHOCHOLYLTAURINE]
[2] Nc1ccn(C2CC(O)C(COP(=O)(O)O)O2)c(=O)n1 (stereo unspecified) [DEOXYCYTIDINE MONOPHOSPHATE]
In the pair 1 and 2 , the larger recorded LC retention time belongs to which? Selection: enter the item's label. 1

[1] CC(=O)NC(Cc1c[nH]c2ccccc12)C(=O)O (stereo unspecified) [N-ACETYLTRYPTOPHAN]
[2] Nc1ncnc2c1ncn2C1OC(COP(=O)(O)OP(=O)(O)OC2OC(CO)C(O)C(O)C2O)C(O)C1O (stereo unspecified) [ADP-GLUCOSE]
[3] O=c1ccn(C2CC(O)C(CO)O2)c(=O)[nH]1 (stereo unspecified) [DEOXYURIDINE]
[4] C=Cc1c(C)c2cc3[nH]c(cc4nc(cc5nc(cc1[nH]2)C(C)=C5CCC(=O)O)C(CCC(=O)O)=C4C)c(C)c3C=C [PROTOPORPHYRIN]
Form: Sort by [LC retention time] Order [ ascending ] Write the labels, ordered according to the request. 2, 3, 1, 4
(2: 1.16 min, 3: 3.27 min, 1: 5.31 min, 4: 9.14 min)

[P] O=C1c2c(O)cccc2C(C2OC(CO)C(O)C(O)C2O)c2cc(CO)cc(O)c21 (stereo unspecified) [ALOIN]
[Q] O=CNCC(=O)O [N-FORMYLGLYCINE]
Hi, I'm comparing P with Q and wondering which one has the bigger number for LC retention time. Any idea? Please indicate the selected item by its label. P
(P: 5.1 min, Q: 0.962 min)

[I] Cn1cnc(=N)c2[nH]cnc21 [3-METHYLADENINE]
[II] O=c1cc(-c2ccc(O)c(O)c2)oc2cc(O)cc(O)c12 [LUTEOLIN]
Which has the higher LC retention time, I or II ? // output: label of the selected item II
